Ref: ChEMBL document CHEMBL5441456

tested-target: Replicase polyprotein 1ab (Severe acute respiratory syndrome coronavirus 2, UniProt P0DTD1)
assay-comment: Functional biochemical assay to identify treatments for viral infectious disease that targets SARS-COV-2 nsp3 macrodomain, whereby the mechanism of action displaces an ADP-Ribose modified peptide from the binding site. Utilizing a time-resolved fluorescence method to measure binding by reading the emitted fluorescence intensity in two wavelengths.
This section presents compounds with their documented IC50 values.

>  <cpd-smiles>
CC(C)[C@H](Nc1nc(N)ncc1Cl)c1ccc2c(c1)S(=O)(=O)CCC2

>  <IC50>
> 99.5 µM

$$$$
>  <cpd-smiles>
CC(C)[C@@H](Nc1ncnc2n[nH]cc12)c1cnn(C)c1

>  <IC50>
43.1 µM

$$$$
>  <cpd-smiles>
Cn1nc(C(=O)N2CCC(c3ccn4ncc(C(=O)N5CCCCC5)c4c3)CC2)cc1C(=O)O

>  <IC50>
66.4 µM

$$$$
>  <cpd-smiles>
Cc1cc(NCc2cnc3c(c2)NC(=O)CO3)cnc1C

>  <IC50>
> 124 µM

$$$$
>  <cpd-smiles>
CC(C)[C@@H](NCc1ncc[nH]1)c1ccc2c(c1)OCCO2

>  <IC50>
> 99.5 µM

$$$$
>  <cpd-smiles>
Cc1[nH]c2ncnc(NC(=O)c3cccnc3)c2c1C

>  <IC50>
> 99.5 µM

$$$$
>  <cpd-smiles>
CNc1cc(N[C@@H](c2ccc3c(c2)S(=O)(=O)CCC3)C(C)C)ncn1

>  <IC50>
6.08 µM

$$$$
>  <cpd-smiles>
CC(C)[C@@H](Nc1ncnc2[nH]c(C3=CCCN(C(=O)OCc4ccccc4)C3)cc12)c1ccc2c(c1)OCCO2

>  <IC50>
> 99.5 µM

$$$$
>  <cpd-smiles>
CC(C)[C@@H](Nc1ncnc2[nH]c(C(=O)NCCC3CN(C)C3)cc12)c1ccc2c(c1)OCCO2

>  <IC50>
0.894 µM

$$$$
>  <cpd-smiles>
Cc1[nH]c2ncnc(NC(=O)c3cnc(Cl)cn3)c2c1C

>  <IC50>
> 99.5 µM

$$$$
>  <cpd-smiles>
CC(C)[C@@H](NC(=O)c1cnn(-c2ccccc2)n1)c1ccc2c(c1)OCCO2

>  <IC50>
> 99.5 µM

$$$$
>  <cpd-smiles>
CC(C)[C@@H](Nc1ncnc2[nH]c(-c3cccc4c3NC(=O)C4)cc12)c1ccc2c(c1)S(=O)(=O)CCC2

>  <IC50>
0.36 µM

$$$$
>  <cpd-smiles>
O=C(Nc1ccc(C(=O)N[C@@H]2c3ccccc3C[C@@H]2C(=O)O)cc1)c1ccc2c(c1)OCCO2

>  <IC50>
> 99.5 µM

$$$$
>  <cpd-smiles>
Cc1nccc(C(=O)N2CCC(c3ccn4ncc(C(=O)N5CCCCC5)c4c3)CC2)n1

>  <IC50>
> 99.5 µM

$$$$
>  <cpd-smiles>
CC(C)[C@@H](Nc1ncnc2c1cnn2C)c1ccc2c(c1)OCCO2

>  <IC50>
> 99.5 µM

$$$$
>  <cpd-smiles>
CC(C)[C@H](Nc1ncncc1Cl)c1ccc2c(c1)S(=O)(=O)CCC2

>  <IC50>
> 99.5 µM

$$$$
>  <cpd-smiles>
CNc1nc(N[C@@H](c2ccc3c(c2)OCCO3)C(C)C)c2cc[nH]c2n1

>  <IC50>
> 99.5 µM

$$$$
>  <cpd-smiles>
Cc1nc(N)c(Cl)c(N[C@H](c2ccc3c(c2)S(=O)(=O)CCC3)C(C)C)n1

>  <IC50>
> 99.5 µM

$$$$
>  <cpd-smiles>
Cc1[nH]c2ncnc(C(=O)Nc3ccnc(Cl)c3)c2c1C

>  <IC50>
> 99.5 µM

$$$$
>  <cpd-smiles>
CC(C)[C@@H](c1ccc2c(c1)S(=O)(=O)CCC2)n1c(=O)[nH]c2c(N)ccnc21

>  <IC50>
> 99.5 µM

$$$$
>  <cpd-smiles>
CC(C)[C@@H](Nc1cnc2[nH]cnc2c1)c1ccc2c(c1)S(=O)(=O)CCC2

>  <IC50>
> 99.5 µM

$$$$
>  <cpd-smiles>
NC(=O)[C@@H](NC(=O)c1ncnc2[nH]ccc12)c1ccc(Br)cc1

>  <IC50>
> 99.5 µM

$$$$
>  <cpd-smiles>
CC(C)[C@@H](Nc1cc(NCC(F)(F)F)ncn1)c1ccc2c(c1)S(=O)(=O)CCC2

>  <IC50>
2.25 µM

$$$$
>  <cpd-smiles>
O=C(N[C@@H](CO)Cc1ccncc1)c1ncnc2[nH]ccc12

>  <IC50>
> 99.5 µM

$$$$
>  <cpd-smiles>
COc1ccc([C@@H]2CN(C(=O)c3ncnc4[nH]ccc34)C[C@H]2C(=O)O)cc1

>  <IC50>
> 99.5 µM

$$$$
>  <cpd-smiles>
NC(=O)C[C@H](NC(=O)c1ncnc2[nH]ccc12)c1ccc(Cl)cc1

>  <IC50>
> 99.5 µM

$$$$
>  <cpd-smiles>
NC(=O)[C@@H](NC(=O)c1ncnc2[nH]ccc12)c1ccc(F)cc1

>  <IC50>
> 99.5 µM

$$$$
>  <cpd-smiles>
O=C(O)C[C@@H](NC(=O)c1cccc2[nH]ncc12)c1ccc(Br)cc1

>  <IC50>
> 99.5 µM

$$$$
>  <cpd-smiles>
CC(C)C[C@@H](Nc1ncnc2[nH]ccc12)C(=O)O

>  <IC50>
> 99.5 µM

$$$$
>  <cpd-smiles>
Cc1nc(C(=O)N2CCC(c3ccn4ncc(C(=O)N5CCCCC5)c4c3)CC2)c(=O)[nH]c1C

>  <IC50>
> 99.5 µM

$$$$
>  <cpd-smiles>
O=C(c1cn2ncccc2n1)N1CCC(c2ccn3ncc(C(=O)N4CCCCC4)c3c2)CC1

>  <IC50>
> 99.5 µM

$$$$
>  <cpd-smiles>
CCNC(=O)c1cc2c(N[C@H](c3ccc4nc(NC(C)=O)sc4c3)C(C)C)ncnc2[nH]1

>  <IC50>
30.1 µM

$$$$
>  <cpd-smiles>
CC(C)[C@@H](Nc1n[nH]c2ncccc12)c1ccc2c(c1)S(=O)(=O)CCC2

>  <IC50>
43.5 µM

$$$$
>  <cpd-smiles>
CNC(=O)c1cc2c(N[C@H](c3ccc4c(c3)S(=O)(=O)CCC4)C(C)C)ncnc2[nH]1

>  <IC50>
1.79 µM

$$$$
>  <cpd-smiles>
Cc1[nH]c2ncnc(NC(=O)c3ccc(-n4cnnc4)cc3)c2c1C

>  <IC50>
> 99.5 µM

$$$$
>  <cpd-smiles>
Cc1[nH]c2ncnc(NCc3ccco3)c2c1C

>  <IC50>
> 99.5 µM

$$$$
>  <cpd-smiles>
C[C@@H](c1ccc(F)c(F)c1)N(C)C(=O)c1ncnc2[nH]ccc12

>  <IC50>
> 99.5 µM

$$$$
>  <cpd-smiles>
O[C@H]1C[C@](CNc2ncnc3[nH]ccc23)(c2ccccc2)C1

>  <IC50>
> 124 µM

$$$$
>  <cpd-smiles>
Cc1cccc(C)c1-n1nnnc1CSc1ncnc2[nH]cnc12

>  <IC50>
> 99.5 µM

$$$$
>  <cpd-smiles>
CC(C)[C@@H](CN1CCCCC1)Nc1ncnc2[nH]ccc12

>  <IC50>
> 99.5 µM

$$$$
